# test system: ALK (baculovirus expressed human ALK kinase domain F1098-K1410) (Homo sapiens, UniProt Q9UM73)
# Sequence (Q9UM73 1098-1410): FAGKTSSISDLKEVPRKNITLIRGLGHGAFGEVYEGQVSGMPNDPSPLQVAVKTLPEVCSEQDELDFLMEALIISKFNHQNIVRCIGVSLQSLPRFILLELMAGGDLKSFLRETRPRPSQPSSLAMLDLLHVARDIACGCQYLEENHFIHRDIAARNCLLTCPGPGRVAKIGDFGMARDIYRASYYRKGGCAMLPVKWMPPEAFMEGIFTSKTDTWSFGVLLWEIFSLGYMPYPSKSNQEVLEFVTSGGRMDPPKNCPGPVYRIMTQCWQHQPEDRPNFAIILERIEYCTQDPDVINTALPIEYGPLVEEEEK
pIC50: −log10 of the molar value.
measurement label: pIC50

compound="Cc1n[nH]c2nc(-c3nnc(N)s3)c3c(F)cc(O)c(F)c3c12 [Example 212]" measurement_label=pIC50 recorded_result="6.00 to 7.00"
compound="COc1cc2c(cc1OC(F)F)c(-c1ccc(O)c(Cl)c1)nc1[nH]nc(C)c12 [Example 142]" measurement_label=pIC50 recorded_result="≥ 7.00"
compound="CCc1c(OC)ccc2c(-c3ccc(O)c(Cl)c3)nc3[nH]nc(C)c3c12 [Example 168]" measurement_label=pIC50 recorded_result="≥ 7.00"
compound="COc1c(Cl)cc2c(-c3ccc(O)cc3)nc3[nH]nc(C)c3c2c1F [Example 105]" measurement_label=pIC50 recorded_result="6.00 to 7.00"
compound="COc1c(OCC2CCN(C)CC2)cc(F)c2c(-c3cc(Cl)c(O)cc3F)nc3[nH]nc(C)c3c12 [Example 184]" measurement_label=pIC50 recorded_result="≥ 7.00"
compound="COCCOc1ccc2c(-c3ccc(O)cc3F)nc3[nH]nc(C)c3c2c1OC [Example 130]" measurement_label=pIC50 recorded_result="≥ 7.00"
compound="COc1ccc2c(-c3ccc(O)cc3)nc3[nH]nc(C)c3c2c1F [Example 89]" measurement_label=pIC50 recorded_result="≥ 7.00"
compound="COc1c(F)cc2c(c(-c3ccc(O)c(Cl)c3)nc3[nH]nc(C)c32)c1O [Example 170]" measurement_label=pIC50 recorded_result="≥ 7.00"
compound="COCCOc1cc(F)c2c(-c3ccc(O)cc3F)nc3[nH]nc(C)c3c2c1F [Example 126]" measurement_label=pIC50 recorded_result="≥ 7.00"
compound="COc1cc2c(-c3ccc(O)c(Cl)c3)nc3[nH]nc(C)c3c2cc1OC(C)C [Example 133]" measurement_label=pIC50 recorded_result="≥ 7.00"
compound="CCOc1cc2c(cc1OC)c(-c1ccc(O)cc1)nc1[nH]nc(C)c12 [Example 58]" measurement_label=pIC50 recorded_result="6.00 to 7.00"
compound="COc1ccc2c(-c3ccc(O)cc3)nc3[nH]nc(C)c3c2c1OC [Example 59]" measurement_label=pIC50 recorded_result="≥ 7.00"
compound="COc1cc2c(cc1C)c(-c1ccc(O)c(Br)c1)nc1[nH]nc(C)c12 [Example 102]" measurement_label=pIC50 recorded_result="≥ 7.00"
compound="CCN(CC)CCOc1cc2c(c(-c3ccc(O)c(Cl)c3)nc3[nH]nc(C)c32)c(F)c1OC [Example 178]" measurement_label=pIC50 recorded_result="≥ 7.00"
compound="COc1cc2c(-c3ccc(O)c(F)c3)nc3[nH]nc(C)c3c2cc1OC [Example 42]" measurement_label=pIC50 recorded_result="6.00 to 7.00"
compound="COc1c(OCCN(C)C2CCN(C)C2)cc(F)c2c(-c3ccc(O)c(Cl)c3)nc3[nH]nc(C)c3c12 (centres unmarked) [Example 231]" measurement_label=pIC50 recorded_result="≥ 7.00"
compound="Cc1n[nH]c2nc(-c3cc(Cl)c(O)cc3F)c3c(F)cc4c(c3c12)OCCO4 [Example 165]" measurement_label=pIC50 recorded_result="≥ 7.00"
